B1: ZNF8 (parent)
chain: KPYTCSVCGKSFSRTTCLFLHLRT

Variants of: B1
Assay: protein stability index of a GFP-peptide fusion (GPS, HEK-293T) (PSI 1-6); higher = more stable;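 further: lentivirally expressed fusions sorted by FACS into six bins by GFP to DsRed ratio, PSI derived from sequencing read proportions per bin multiplied by bin number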
Details: c terminus: a fixed tail appended
measured parameter: protein stability index
Simply state the number, no unit and no words.

Given item `R14D` , the value recorded as its protein stability index is 3.85

Entry `R14F` — recorded protein stability index = 1.6

For record `Y3M` the listed protein stability index is 2.3

Memo: `R14S` , reported protein stability index: 3.13

The variant identified as `T24H` registered its protein stability index at 2.96

Would you kindly look at the next entry?
# protein stability index of `H21E` = 2.31
